Catalogue of binders with associated EC50 in PBMC Assay 2 (precomplexed IL-18BP), IFNγ
subject-of-test: T1, human IL-18BP (interleukin-18 binding protein, isoform A) (human, UniProt O95998 31-194)
T1 sequence: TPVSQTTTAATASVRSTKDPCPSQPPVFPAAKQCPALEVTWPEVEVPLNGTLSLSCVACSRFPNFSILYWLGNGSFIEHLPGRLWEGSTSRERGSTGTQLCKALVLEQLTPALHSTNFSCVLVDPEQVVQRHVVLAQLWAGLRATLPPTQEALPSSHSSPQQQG
assay-text: cell-based or functional assay
metric: EC50 in PBMC Assay 2 (precomplexed IL-18BP), IFNγ (pM)

binder | assay-result
SA303a (antibody, human IgG1, V domains shown, humanized; human IgG1 (suffix a), kappa) VH: QVQLQESGPGLVKPSQTLSLTCTVSGYSITSDYNAHWIRQPPGKGLEWIGYIHYSGSTNYNPSLKSRVTISRDTSKNQFSLKLSSVTAADTAVYYCARNFGSIYVNYFDYWGQGTLVTVSS VL: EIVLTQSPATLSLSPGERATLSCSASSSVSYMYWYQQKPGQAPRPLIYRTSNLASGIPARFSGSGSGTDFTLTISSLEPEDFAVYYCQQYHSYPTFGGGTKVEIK | 2750
SA305a (antibody, human IgG1, V domains shown) VH: QVQLQESGPGLVKPSQTLSLTCTVSGYSITSDYNAHWIRQPPGKGLEWIGYIHYSGSTNYNPSLKSRVTISRDTSKNQFSLKLSSVTAADTAVYYCARNFASIYVNYFDYWGQGTLVTVSS VL: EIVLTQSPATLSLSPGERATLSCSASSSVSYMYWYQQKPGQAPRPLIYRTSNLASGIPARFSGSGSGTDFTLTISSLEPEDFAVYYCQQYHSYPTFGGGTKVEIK | 790
SA317a (antibody, human IgG1, V domains shown, humanized; human IgG1 (suffix a), kappa) VH: QVQLQESGPGLVKPSQTLSLTCTVSGYSITSDYNAHWIRQPPGKGLEWIGYIHYSGSTLYNPSLKSRVTISRDTSKNQFSLKLSSVTAADTAVYYCARNYGSIYVNYFDYWGQGTLVTVSS VL: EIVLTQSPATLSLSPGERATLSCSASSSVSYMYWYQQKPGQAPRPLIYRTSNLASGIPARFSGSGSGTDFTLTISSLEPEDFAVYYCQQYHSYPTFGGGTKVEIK | 450
